Attribution: patent US20240325572A1

- measured on: aggregated amyloid beta (Aβ1-42) (Homo sapiens, UniProt P05067)
- Construct: Aβ1-42 peptide was aggregated in vitro using the following procedure
- Sequence (P05067 672-713 limits assumed): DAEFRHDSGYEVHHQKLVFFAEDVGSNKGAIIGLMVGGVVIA
- assay text: In vitro binding studies of compounds with amyloid beta: fluorescent emission spectra with and without aggregated Aβ
- run parameters: fold increase at maximum emission (compound+Aβ/compound); excitation 450 nm; 4 μM compound, 5 μM aggregated Aβ in 1×PBS
Just a reminder that ties go to label 0: only Fold Increase @ 450 nm strictly below 10 counts as label 1.

compound: N#C/C(=C\c1ccc2cc(N3CCC3)ccc2c1)C(=O)NCC(O)CO (stereo not shown)
measured on: aggregated amyloid beta (Aβ1-42) (Homo sapiens, UniProt P05067)
classification: label 0
//
compound: N#C/C(=C\c1ccc2cc(N3CCCCC3)ccc2c1)C(=O)CC[C@H](O)CO
measured on: aggregated amyloid beta (Aβ1-42) (Homo sapiens, UniProt P05067)
classification: label 1
//
compound: N#C/C(=C\c1ccc2ccccc2c1N1CCCCC1)C(=O)NCC(O)CO (stereo not shown)
measured on: aggregated amyloid beta (Aβ1-42) (Homo sapiens, UniProt P05067)
classification: label 1
//
compound: N#C/C(=C\c1ccc2cc(N3CCCC3)ccc2c1)C(=O)NCC(O)CO (stereo not shown)
measured on: aggregated amyloid beta (Aβ1-42) (Homo sapiens, UniProt P05067)
classification: label 0
//
compound: N#C/C(=C\c1ccc2cc(N3CCCCC3)ccc2c1)C(=O)NCC(O)CO (stereo not shown) [Compound 4, reference compound]
measured on: aggregated amyloid beta (Aβ1-42) (Homo sapiens, UniProt P05067)
classification: label 0
//
compound: N#C/C(=C\c1ccc2ccccc2c1N1CCC1)C(=O)NCC(O)CO (stereo not shown)
measured on: aggregated amyloid beta (Aβ1-42) (Homo sapiens, UniProt P05067)
classification: label 1

---

Quick reference for Fold Increase @ 488 nm among some compounds
- measured on: aggregated amyloid beta (Aβ1-42) (Homo sapiens, UniProt P05067)
- Construct: Aβ1-42 peptide was aggregated in vitro using the following procedure
- assay text: In vitro binding studies of compounds with amyloid beta: fluorescent emission spectra with and without aggregated Aβ
- run parameters: fold increase at maximum emission (compound+Aβ/compound); excitation 488 nm; 4 μM compound, 5 μM aggregated Aβ in 1×PBS
parameter: Fold Increase @ 488 nm

compound: N#C/C(=C\c1ccc2ccccc2c1N1CCC1)C(=O)NCC(O)CO (stereo not shown)
observed result: 2.84

compound: N#C/C(=C\c1ccc2cc(N3CCCCC3)ccc2c1)C(=O)NCC(O)CO (stereo not shown) [Compound 4, reference compound]
observed result: 18.53

compound: N#C/C(=C\c1ccc2cc(N3CCC3)ccc2c1)C(=O)NCC(O)CO (stereo not shown)
observed result: 19.13

compound: N#C/C(=C\c1ccc2cc(N3CCCCC3)ccc2c1)C(=O)CCCOCCOCCO
observed result: 9.11

compound: N#C/C(=C\c1ccc2ccccc2c1N1CCCCC1)C(=O)NCC(O)CO (stereo not shown)
observed result: 17.18

compound: N#C/C(=C\c1ccc2cc(N3CCCCC3)ccc2c1)C(=O)CC[C@H](O)CO
observed result: 19.60

compound: N#C/C(=C\c1ccc2cc(N3CCCC3)ccc2c1)C(=O)NCC(O)CO (stereo not shown)
observed result: 22.81
